The reported numbers originate from the supplement of paper PMC8285479.

# Test system: NCI-H1944
# Assay Summary: normalised cell viability (NPI; 0 = phenylarsine oxide control, 1 = DMSO control) (fraction of DMSO control); higher = more viable cells (less compound toxicity)
# Condition Summary: glucocorticoid arm: vehicle; compound 5 µM; 6 days
Counter-ions that a name gives are not always drawn. In all, about 1,900 compounds were measured (“normalised cell viability (NPI; 0 = phenylarsine oxide control, 1 = DMSO control)”: median about 1, lowest 2% from about 0.039 on). Shown is part of a subset that was picked to be rich in the lowest values.
# normalised cell viability listing for each entry below

[
  {
    "Compound": "Cc1cc(Nc2ccc(NC(=O)c3ccc(Nc4ccnc5ccccc45)cc3)cc2)nc(N)n1",
    "Study Target": "NCI-H1944",
    "normalised cell viability": 0.000819
  },
  {
    "Compound": "CCN(CC)CCNC(=O)c1ccc(NC(C)=O)cc1 [N-Acetylprocainamide hydrochloride]",
    "Study Target": "NCI-H1944",
    "normalised cell viability": 0.981
  },
  {
    "Compound": "CC(C)(C(=O)O)c1ccc(C(O)CCCN2CCC(C(O)(c3ccccc3)c3ccccc3)CC2)cc1 (stereo not given) [Fexofenadine HCl]",
    "Study Target": "NCI-H1944",
    "normalised cell viability": 0.998
  },
  {
    "Compound": "CCN(CC)Cc1ccc2cc(COC(=O)Nc3ccc(C(=O)NO)cc3)ccc2c1",
    "Study Target": "NCI-H1944",
    "normalised cell viability": 0.000221
  },
  {
    "Compound": "O=C(O)c1ccnc(C(=O)O)c1",
    "Study Target": "NCI-H1944",
    "normalised cell viability": 0.999
  },
  {
    "Compound": "COc1cccc2c1C(=O)c1c(O)c3c(c(O)c1C2=O)C[C@@](O)(C(=O)CO)C[C@@H]3O[C@H]1C[C@H](N)[C@H](O)[C@H](C)O1 [Doxorubicin hydrochloride; 4'-Epiadriamycin; Doxorubicin HCl]",
    "Study Target": "NCI-H1944",
    "normalised cell viability": 0.129
  },
  {
    "Compound": "C/C=C1\\C(=O)C[C@H]2[C@@H]3CCC4=CC(=O)CC[C@]4(C)[C@H]3CC[C@]12C [(Z)-Guggulsterone]",
    "Study Target": "NCI-H1944",
    "normalised cell viability": 0.989
  },
  {
    "Compound": "CC(=O)[C@]1(O)Cc2c(O)c3c(c(O)c2[C@@H](O[C@H]2C[C@H](N)[C@H](O)[C@H](C)O2)C1)C(=O)c1ccccc1C3=O [Idarubicin hydrochloride]",
    "Study Target": "NCI-H1944",
    "normalised cell viability": 0.00231
  },
  {
    "Compound": "CCCCC/C=C\\C[C@@H](O)/C=C/c1cccc(C[C@@H](O)CCCCO)n1",
    "Study Target": "NCI-H1944",
    "normalised cell viability": 1.03
  },
  {
    "Compound": "CC(C)(C)c1cnc(CSc2cnc(NC(=O)C3CCNCC3)s2)o1",
    "Study Target": "NCI-H1944",
    "normalised cell viability": 0.00933
  },
  {
    "Compound": "COc1cc2c(cc1OC)[C@@H](c1ccccc1)CN(C)CC2",
    "Study Target": "NCI-H1944",
    "normalised cell viability": 0.986
  },
  {
    "Compound": "N=C(N)NCCC[C@H](N)C(=O)O",
    "Study Target": "NCI-H1944",
    "normalised cell viability": 1
  },
  {
    "Compound": "CC(=O)[C@]1(O)Cc2c(O)c3c(c(O)c2[C@@H](O[C@H]2C[C@H](N)[C@H](O)[C@H](C)O2)C1)C(=O)c1ccccc1C3=O [Idarubicin hydrochloride; Idarubicin; 4-DMD HCl]",
    "Study Target": "NCI-H1944",
    "normalised cell viability": 1.01
  },
  {
    "Compound": "Oc1cc2c(c(Cl)c1O)CCNCC2c1ccccc1 (racemic) [(±)-6-Chloro-PB hydrobromide]",
    "Study Target": "NCI-H1944",
    "normalised cell viability": 1.02
  },
  {
    "Compound": "CC(C)(C)c1ccc(C(O)CCCN2CCC(C(O)(c3ccccc3)c3ccccc3)CC2)cc1 (stereo not given)",
    "Study Target": "NCI-H1944",
    "normalised cell viability": 0.0387
  },
  {
    "Compound": "O=c1[nH]c2cc(Cl)c(Cl)cc2[nH]c1=O",
    "Study Target": "NCI-H1944",
    "normalised cell viability": 1
  },
  {
    "Compound": "CC1CN(S(=O)(=O)c2cccc3cnccc23)CCN1 (stereo not given)",
    "Study Target": "NCI-H1944",
    "normalised cell viability": 0.975
  },
  {
    "Compound": "CC[n+]1c(/C=C/C=C2/N(C)c3ccccc3C2(C)C)sc2ccccc21",
    "Study Target": "NCI-H1944",
    "normalised cell viability": 0.112
  },
  {
    "Compound": "O=C(/C=C/c1ccc(CN(CCO)CCc2c[nH]c3ccccc23)cc1)NO",
    "Study Target": "NCI-H1944",
    "normalised cell viability": -0.000399
  },
  {
    "Compound": "CC(C)(C(=O)O)c1ccc(C(O)CCCN2CCC(C(O)(c3ccccc3)c3ccccc3)CC2)cc1 (stereo not given) [Fexofenadine hydrochloride]",
    "Study Target": "NCI-H1944",
    "normalised cell viability": 0.997
  },
  {
    "Compound": "N=C(N)NCCCCN [Agmatine sulfate]",
    "Study Target": "NCI-H1944",
    "normalised cell viability": 0.997
  },
  {
    "Compound": "CCCCC1(C2CCCC2)Cc2cc(OCC(=O)O)c(Cl)c(Cl)c2C1=O (stereo in doubt) [R(+)-Butylindazone]",
    "Study Target": "NCI-H1944",
    "normalised cell viability": 0.989
  },
  {
    "Compound": "CN(N=O)C(=O)N[C@@H]1[C@@H](O)[C@H](O)[C@@H](CO)O[C@@H]1O",
    "Study Target": "NCI-H1944",
    "normalised cell viability": 1
  },
  {
    "Compound": "CC(C)c1ccccc1Cc1cc(C(=O)Nc2ccc(S(=O)(=O)c3ccccc3C(C)(C)C)cc2)c(O)c(O)c1O",
    "Study Target": "NCI-H1944",
    "normalised cell viability": 0.813
  },
  {
    "Compound": "CCN(CC)CCCC(C)Nc1nc(C)cc(Nc2ccc3nc(C)cc(N)c3c2)n1 (stereo not given)",
    "Study Target": "NCI-H1944",
    "normalised cell viability": 0.119
  },
  {
    "Compound": "CC(C)C[C@H](NC(=O)CNC(=O)c1cc(Cl)ccc1Cl)B(O)O",
    "Study Target": "NCI-H1944",
    "normalised cell viability": 0.0506
  },
  {
    "Compound": "Cc1c(NC(=O)c2ccc(C(C)(C)C)cc2)cccc1-c1cn(C)c(=O)c(Nc2ccc(C(=O)N3CCOCC3)cc2)n1",
    "Study Target": "NCI-H1944",
    "normalised cell viability": 1.01
  },
  {
    "Compound": "CN(C)Cc1ccc(S(=O)(=O)n2ccc(/C=C/C(=O)NO)c2)cc1",
    "Study Target": "NCI-H1944",
    "normalised cell viability": 0.214
  },
  {
    "Compound": "CCC1=C[C@@H]2CN(C1)Cc1c([nH]c3ccccc13)[C@@](C(=O)OC)(c1cc3c(cc1OC)N(C)[C@H]1[C@@](O)(C(=O)OC)[C@H](OC(C)=O)[C@]4(CC)C=CCN5CC[C@]31[C@@H]54)C2 [Vinorelbine tartrate]",
    "Study Target": "NCI-H1944",
    "normalised cell viability": 0.0356
  },
  {
    "Compound": "CC[C@]1(O)C[C@@H]2CN(CCc3c([nH]c4ccccc34)[C@@](C(=O)OC)(c3cc4c(cc3OC)N(C)[C@H]3[C@@](O)(C(=O)OC)[C@H](OC(C)=O)[C@]5(CC)C=CCN6CC[C@]43[C@@H]65)C2)C1 [Vinblastine sulfate salt]",
    "Study Target": "NCI-H1944",
    "normalised cell viability": 0.0495
  }
]

###

# normalised cell viability listing for each entry below
# Test system: NCI-H1944;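 note: CTB read-out in 384-well plates, triplicate wells, NPI normalised per plate against 1 µM phenylarsine oxide (0) and 0.1% DMSO (1) controls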
# Assay Summary: normalised cell viability (NPI; 0 = phenylarsine oxide control, 1 = DMSO control) (fraction of DMSO control); NCI-H1944 is a non-small cell lung cancer line; higher = more viable cells (less compound toxicity)
# Condition Summary: glucocorticoid arm: vehicle; compound 5 µM; 6 days
Counter-ions that a name gives are not always drawn. The full ranking holds about 1,900 compounds; the median of “normalised cell viability (NPI; 0 = phenylarsine oxide control, 1 = DMSO control)” is about 1, and the lowest 2% start at about 0.039. Only a selection was taken, and the lowest values are over-represented in it overall.
Measure: normalised cell viability

[
  {
    "Compound": "COC(=O)C1=C(C)NC(C)=C([N+](=O)[O-])C1c1ccccc1C(F)(F)F (racemic)",
    "Assay Result": 0.947
  },
  {
    "Compound": "NCCCCC(=O)O [5-Aminovaleric acid hydrochloride]",
    "Assay Result": 0.993
  },
  {
    "Compound": "N/C(=N\\C(=O)c1nc(Cl)c(N)nc1N)NCc1ccc(Cl)c(Cl)c1 [3',4'-Dichlorobenzamil hydrochloride]",
    "Assay Result": 0.0118
  },
  {
    "Compound": "Cc1cnc(NC(=O)Nc2cc(Br)c(C)cc2OC[C@@H]2CNCCO2)cn1",
    "Assay Result": 0.334
  },
  {
    "Compound": "C=C(C)C(CC=C(C)C)CC12CC(CC=C(C)C)C(C)(C)C(CC=C(C)C)(C(=O)C(=C(O)c3ccc(O)c(O)c3)C1=O)C2=O (stereo not drawn)",
    "Assay Result": 1
  },
  {
    "Compound": "COC(=O)C(C)(N)Cc1ccc(O)cc1 (racemic) [alpha-Methyl-DL-tyrosine methyl ester hydrochloride]",
    "Assay Result": 1
  },
  {
    "Compound": "CN(C)CCOc1ccc(-c2nc(-c3ccncc3)c(-c3ccc4c(c3)CC/C4=N\\O)[nH]2)cc1",
    "Assay Result": 1
  },
  {
    "Compound": "N/C(=N\\C(=O)c1nc(Cl)c(N)nc1N)NCc1ccccc1 [Benzamil hydrochloride]",
    "Assay Result": 1.02
  }
]
